Entry source: the supplement of paper PMC9170038

Test system: MS2 coat protein
Experiment: apparent KD of MS2 coat protein; designed switch direction (-1 OFF switch, 1 ON switch): -1; higher = weaker reporter binding
Conditions: Eterna round: R95; input ligand: FMN 200 uM
sequences and their reported apparent KD of MS2 coat protein

Polymer sequence	Measurement unit	apparent KD of MS2 coat protein
UACCGGCGGACCGAAGCUUUUUGCUUGUCUUAUACUACGACAUGAGGAUCACCCAUGUGGUGGUGGUCCGUUGUAGU [JL ViennaUCT Bitein mod 3] (puzzle: Sensor v3, turn-off variant 2)	nM	48.3
GGUCAAGAACAGAUCCGCGCUGUCCUUGACCGCUCAUUUACAUGAGGAUCACCCAUGUUUUUUGCUUGUCUUGUUAC [Tixegeis] (puzzle: Sensor v3, turn-off variant 2)	nM	17.4
UAAUAUAAGCAAAGAUCCUACAUGAGGAUCACCCAUGUGCUCGUCUUAUAAAGUACUAUCACGAAAGUGAUAGUACA [Mat - Sensor v3 - turn-off var 1 - Eli Mod - D81] (puzzle: Sensor v3, turn-off variant 1)	nM	116
AAUAACAGGCCGAUCCUAAACAUGAGGAUCACCCAUGUGCUCGUCUUGUAAAGUACUAUCACGAAAGUGAUAGUACA [Sensor v3, turn-off variant 1 (MOD of Eli's v1-59 v.2 )] (puzzle: Sensor v3, turn-off variant 1)	nM	39.9
AAAACUGCCCAUAACCGCAAGCUUUUUGCUUGUCUUACCACAUGAGGAUCACCCAUGUGACAUGGGCUCCUUAUAAA [Arixeerat] (puzzle: Sensor v3, turn-off variant 2)	nM	14.1
AGUAGUAGUAUCCGUUCUUACAUGAGGAUCACCCAUGUUUCUUGACGUGCACGCGAUGCUCGUCAGACUACCAGAUG [salish99_TOv1_r3_055] (puzzle: Sensor v3, turn-off variant 1)	nM	68.5
AGUACUAACACGGAAGUGUUAGUACAAUAAGCUUGUGAAACAUGAGGAUCACCCAUGUCCUCAUAAGCUCGUCUUAU [salish99_TOv2_r3_026] (puzzle: Sensor v3, turn-off variant 2)	nM	11.1
GAGGCAUGCUGAGGUCCACACAUGAGGAUCACCCAUGUAAUGACAAGCUUUUUCCUCGUCUUAUCGCUAUCGCGUUC [Dilaenla] (puzzle: Sensor v3, turn-off variant 1)	nM	15.5
GGUGCUGGCGCGUCGGUGUUGGUGCAAUAAGCUUGUGAAACAUGAGGAUCACCCAUGUCCUCAUAAGCUCGUCUUGU [salish99_TOv2_r2_087] (puzzle: Sensor v3, turn-off variant 2)	nM	14.4
UACGGGUCAGGAUAUGCGAGGGAGUGGGAAAUAGGAAGGUAGCAGAAGGGACAUGAGGAUCACCCAUGUAAGGA [JR_Exclu4_Sub0100] (puzzle: Exclusion 4)	nM	38.5
